The measurements presented in this section are drawn from paper PMC8769072.

# test target: TSG101 1-145, Q99816
# Sequence (Q99816 1-145): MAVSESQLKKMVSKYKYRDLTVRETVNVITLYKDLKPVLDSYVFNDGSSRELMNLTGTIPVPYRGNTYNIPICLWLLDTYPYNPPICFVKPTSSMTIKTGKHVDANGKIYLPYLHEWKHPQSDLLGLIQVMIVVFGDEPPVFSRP
metric name: selected by phage display

* VPNMPSAPQAYSELQM [UBAP1, Q9NZ09] | confidence 3 (active)
* AEASAPPAPELFSPPV [EME1, Q96AY2] | confidence 2 (active)
* PSALPSVPEPSAPAAP [TRIM47, Q96LD4] | confidence 3 (active)
* EHAELAPPAPSAPSWG [SHKBP1, Q8TBC3] | confidence 3 (active)
* VGAKALPTAPPPPPLP [INF2, Q27J81] | confidence 3 (active)

selected by phage display lookup needed for GSIVRPSAPPARSSVP [YLPM1, P49750] , thanks.
confidence 2 (active)

Now consider VVVPSAPEVQETTRML [NEO1, Q92859] .
confidence 2 (active)

Now consider SLMPSAPHPVKEASPG [TET1, Q8NFU7] .
confidence 3 (active)

Now consider SVAKAVQASAPADERI [STOX1, Q6ZVD7] .
confidence 3 (active)

Now consider PSAPPQVQLPVSLDLP [ZFHX4, Q86UP3] .
confidence 2 (active)

Now consider LPSAPGAEQTAGSLLY [E2F3, O00716] .
confidence 2 (active)

Now consider LLPETVSPSAPSWREP [CBX6, O95503] .
confidence 3 (active)
